Assign normalized growth to each entry below.
test: chemical genetic growth profiling, strain panel (AID 1159580);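 note: tested at 20 µM; growth read once vehicle control cultures reached saturation at 30 °C; 1 = growth at the plate median or of vehicle wells; lower values mean less growth of the strain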; details: S. cerevisiae deletion strains, growth OD, locus YAL026C, strain drs2, stronger effect = lower value
The campaign covered roughly 5,500 compounds. About 2,000 (36%) were called active. Not shown: some 18% with an inconclusive outcome. Some of the results follow.
# output: bare number, no unit

Report measured normalized growth; entry is CCn1cc(C(=O)O)c(=O)c2cnc(N3CCNCC3)nc21 1.03

Supply measured normalized growth of CCn1cc(C(=O)O)c(=O)c2ccc(C)nc21 in your reply. 0.855

Please give the documented normalized growth of CC(=O)OCC(=O)[C@@]12OC(C)(C)O[C@@H]1CC1C3C[C@H](F)C4=CC(=O)C=C[C@]4(C)[C@@]3(F)[C@@H](O)C[C@@]12C (stereo not given in full) 1.02

Give normalized growth for the following molecule: C=CC1=C(C)/C(=C/c2[nH]c(Cc3[nH]c(/C=C4\NC(=O)C(C)=C4C=C)c(C)c3CCC(=O)O)c(CCC(=O)O)c2C)NC1=O 0.982

Name the recorded normalized growth of the molecule listed here: CCn1cc(C(=O)O)c(=O)c2cnc(N3CCCC3)nc21 0.956

Give me measured normalized growth, please, for this molecule: CCCN(CCC)C(=O)C(CCC(=O)O)NC(=O)c1ccccc1 (stereo not given) 0.987

Check the records and state normalized growth for C=CCc1cc(OC)c2c(c1OC)OCO2 0.955

State, in one line, measured normalized growth of CC1(C)O[C@@H]2CC3C4CCC5=CC(=O)C=C[C@]5(C)C4[C@@H](O)C[C@]3(C)[C@]2(C(=O)CO)O1 (stereo not given in full) 1.01

Please give measured normalized growth of the following entry: CCCc1cc(OC)c2c(c1)OCO2 0.988

For the molecule CC1(C)CC2C1CCC1(C)OC1CCC2(C)O (stereo not given) , give its reported normalized growth. 1.05
